Test system: Echinochloa crus-galli (ECHCG)
Test: Post-emergence herbicidal activity, Echinochloa crus-galli
Assay type: in vivo
Conditions: 1000 g/ha, evaluated after 13 days
Observation Type: Control of ECHCG after post-emergence application (score 0-5)

Worked cases, Control of ECHCG after post-emergence application (score 0-5) given:
[
  {
    "Molecule": "CCCCOC(=O)Nc1ccc(-c2cncc(F)c2)nc1C(F)(F)F [Compound B58]",
    "Reported": 3
  },
  {
    "Molecule": "O=C(Nc1ccc(-c2cncc(F)c2)nc1C(F)(F)F)N1CCCC1 [Compound B63]",
    "Reported": 5
  },
  {
    "Molecule": "N#CC1(NC(=O)Nc2ccc(-c3cncc(F)c3)nc2C(F)(F)F)CCC1 [Compound B81]",
    "Reported": 5
  },
  {
    "Molecule": "CN(C(=O)N1CCOCC1)c1ccc(-c2cncc(F)c2)nc1C(F)(F)F [Compound B67]",
    "Reported": 4
  },
  {
    "Molecule": "C=CCN(C(=O)N(C)C)c1ccc(-c2cncc(F)c2)nc1C(F)(F)F [Compound B123]",
    "Reported": 3
  }
]

Look up Control of ECHCG after post-emergence application (score 0-5) for this molecule: CC(C)(C)OC(=O)Nc1ccc(-c2cncc(OC(F)(F)F)c2)nc1C(F)(F)F [Compound B36]
3

Look up Control of ECHCG after post-emergence application (score 0-5) for this molecule: NC(=O)Nc1ccc(-c2cncc(F)c2)nc1C(F)(F)F [Compound B47]
4

Look up Control of ECHCG after post-emergence application (score 0-5) for this molecule: O=C(Nc1ccc(-c2cncc(F)c2)nc1C(F)(F)F)N1CC[S+]([O-])C1 (stereo not drawn) [Compound B117]
5

Look up Control of ECHCG after post-emergence application (score 0-5) for this molecule: O=C(Nc1ccc(-c2cncc(F)c2)nc1C(F)(F)F)N1CCSCC1 [Compound B54]
4

---

Catalogue of Control of ALOMY after post-emergence application (score 0-5) readings, one per entry.
Tested on: Alopecurus myosuroides (ALOMY)
Test: Post-emergence herbicidal activity, Alopecurus myosuroides
Assay type: in vivo
Set-up: key: 5=total damage to plant; 0=no damage to plant
Conditions: 250 g/ha, evaluated after 13 days
Give only the figure.

Worked cases, Control of ALOMY after post-emergence application (score 0-5) given:
[
  {
    "Compound": "CC(C)(C)COC(=O)Nc1ccc(-c2cncc(F)c2)nc1C(F)(F)F [Compound B91]",
    "Reported": 0
  },
  {
    "Compound": "CC(C)CNC(=O)Nc1ccc(-c2cncc(F)c2)nc1C(F)(F)F [Compound B90]",
    "Reported": 0
  },
  {
    "Compound": "O=C(NCC1CC1)Nc1ccc(-c2cncc(F)c2)nc1C(F)(F)F [Compound B104]",
    "Reported": 1
  }
]

Next up:
# get_value(readout= Control of ALOMY after post-emergence application (score 0-5), system= Alopecurus myosuroides (ALOMY)) for O=C(Nc1cc(Cl)cc(Cl)c1)Nc1ccc(-c2cncc(F)c2)nc1C(F)(F)F [Compound B88]
0

---

Test system: Echinochloa crus-galli (ECHCG)
Assay: Post-emergence herbicidal activity, Echinochloa crus-galli
Assay type: in vivo
Conditions: 1000 g/ha, evaluated after 13 days
Procedure: Seeds of a variety of test species were sown in standard soil in pots: Triticum aestivium (TRZAW), Avena fatua (AVEFA), Alopecurus myosuroides (ALOMY), Echinochloa crus-galli (ECHCG), Lolium perenne (LOLPE), Zea Mays (ZEAMX), Abutilon theophrasti (ABUTH), Amaranthus retroflexus (AMARE) and Setaria faberi (SETFA). […] After 13 days, the test was evaluated (5=total damage to plant; 0=no damage to plant).
Observation Type: Control of ECHCG after post-emergence application (score 0-5)
Give only the figure.

Worked cases, Control of ECHCG after post-emergence application (score 0-5) given:
[
  {
    "Cpd Smiles": "O=C(Nc1cncnc1)Nc1ccc(-c2cncc(F)c2)nc1C(F)(F)F",
    "Reported": 3
  },
  {
    "Cpd Smiles": "COC(=O)c1nc(-c2cncc(F)c2)ccc1NC(=O)OC(C)(C)C",
    "Reported": 1
  },
  {
    "Cpd Smiles": "O=C1NCCN1c1ccc(-c2cncc(F)c2)nc1C(F)(F)F",
    "Reported": 4
  }
]

Look up Control of ECHCG after post-emergence application (score 0-5) for this compound: CC(C)NC(=O)Nc1ccc(-c2cncc(F)c2)nc1C(F)(F)F
5

Values were extracted from patent US20210127673A1.
